- Tested on: HCT-15 colon
- test: NCI-60 one-dose screen, 48 h (100 = growth as untreated, 0 = no growth, -100 = all killed)
- run_conditions: 10 µM unless noted
This is part of a sample that, as a whole, favours compounds with a hit. Of some 83,000 tested, about 20% had one in any assay.
Cut-off 40% on growth, inclusive. At or above means 1.0; below means 0.0.

>  <molecule>
O=C1/C(=C/c2cnc(-c3ccccc3)s2)SC(=S)N1Cc1ccc2c(c1)OCO2

>  <subject_of_test>
HCT-15 colon

>  <cat>
1.0

$$$$
>  <molecule>
C[C@@H]1[C@H]2C[C@@H](C[C@H]1NCc1nc3ccccc3n1C1CCCCCC1)C2(C)C

>  <subject_of_test>
HCT-15 colon

>  <cat>
0.0

$$$$
>  <molecule>
CC[C@]12C=CCN3CC[C@]4(C(=C(C(=O)OC)C1)Nc1cc(OC)c([C@@H]5[C@H]6O[C@H]6[C@@]6(CC)CC(C(=O)OC)=C7Nc8cc(OC)ccc8[C@@]78CCN5[C@@H]68)cc14)[C@@H]32

>  <subject_of_test>
HCT-15 colon

>  <cat>
0.0

$$$$

Evaluate COc1ccc(NC(=O)N/N=C/c2c[nH]c3ccccc23)cc1 : growth at minimum 40%?
0.0

API: above_or_equal(metric=growth, cutoff=40%) for item O=C(NN1C(=O)/C(=C/C=C/c2ccc([N+](=O)[O-])o2)SC1=S)c1ccc([N+](=O)[O-])cc1
0.0

Determine whether this molecule has growth no lower than 40%: Nc1cc(-c2c[nH]c3ccc(Br)cc23)nc2cc(-c3c[nH]c4ccccc34)nn12
0.0

Is reported growth greater than or equal to 40% here: Cc1oc(-c2ccccc2)nc1CN[C@@H]1C[C@@H]2C[C@H]([C@H]1C)C2(C)C
0.0
